Exercise: state measured Ki for each of the compounds provided.
TGT: CCK-1 receptor (Homo sapiens, UniProt P32238)
Construct: expressed in transfected cells; host or cells: CHO-K1
Sequence (P32238 whole entry): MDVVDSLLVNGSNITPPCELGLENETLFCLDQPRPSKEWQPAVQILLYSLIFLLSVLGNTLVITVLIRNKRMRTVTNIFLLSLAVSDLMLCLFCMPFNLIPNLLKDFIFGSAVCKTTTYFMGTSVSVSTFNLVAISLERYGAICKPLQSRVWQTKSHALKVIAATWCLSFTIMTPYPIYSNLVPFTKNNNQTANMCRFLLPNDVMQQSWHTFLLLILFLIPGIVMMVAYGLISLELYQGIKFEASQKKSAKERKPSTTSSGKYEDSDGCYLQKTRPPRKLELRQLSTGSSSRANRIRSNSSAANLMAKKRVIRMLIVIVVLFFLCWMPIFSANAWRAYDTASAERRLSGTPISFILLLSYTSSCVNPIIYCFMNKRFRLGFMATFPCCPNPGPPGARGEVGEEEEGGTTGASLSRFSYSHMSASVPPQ
ASSAY PROCEDURE: CCK1 binding assay ([125I]-BH-CCK-8S displacement, CHO-K1 membranes)
TEST PARAMETERS: membranes of CHO-K1 cells stably transfected with the CCK-1 receptor; 20 pM [125I]-BH-CCK-8S; 0.3 μM PD-134,308 present; 60 min at 21±3° C.; read-out: CCK1 pKi (converted)
Give bare numbers, in nM.

- O=C(O)/C(=C/c1ccc(Cl)c(Cl)c1)NC(=O)c1cc(Cl)c(Cl)cc1NS(=O)(=O)c1cccc2nsnc12 [Example 144]: 501

Report Ki for each item below.
1. O=C(NCCc1ccc(Cl)cc1Cl)c1ccccc1NS(=O)(=O)c1cccc2nsnc12 [Example 75]
2. COC(=O)[C@H](Cc1ccc(Cl)c(Br)c1)NC(=O)c1ccc(I)cc1NS(=O)(=O)c1cccc2nsnc12 [Example 122]
3. COC(=O)[C@H](Cc1ccc(F)c(Br)c1)NC(=O)c1ccc(Cl)cc1NS(=O)(=O)c1cccc2nccnc12 [Example 152]
4. COC(=O)C[C@H](Cc1ccc(Cl)cc1)NC(=O)c1ccc(Cl)cc1NS(=O)(=O)c1cccc2nccnc12 [Example 88]
5. COC(=O)[C@@H](Cc1ccc(Cl)cc1)NC(=O)c1ccc(Cl)cc1NS(=O)(=O)c1ccc(F)cc1F [Example 69]
6. CN(CCc1ccccc1)C(=O)c1ccc(Br)cc1NS(=O)(=O)c1cccc2nsnc12 [Example 20]
7. Cc1ccc(C(=O)NCC(C)c2ccc(Cl)cc2)c(NS(=O)(=O)c2cccc3nsnc23)c1 (racemic) [Example 54]

A)
1: 1000; 2: 158; 3: 1000; 4: 6310; 5: 63.1; 6: 2000; 7: 794

# batch: return Ki for each of the 6 compounds below
1. O=C(N[C@@H](Cc1ccc(Cl)c(Br)c1)C(=O)O)c1ccc(I)cc1NS(=O)(=O)c1cccc2nsnc12 [Example 91]
2. O=C(NCCc1ccc(Cl)cc1Cl)c1ccc(Cl)cc1NS(=O)(=O)c1cccc2nsnc12 [Example 70]
3. C[C@@H](NC(=O)c1ccc(I)cc1NS(=O)(=O)c1cccc2nsnc12)[C@@H](O)c1cccc(Br)c1 [Example 101]
4. O=C(N[C@@H](Cc1cccc(Br)c1)C(=O)O)c1ccc(I)cc1NS(=O)(=O)c1cccc2nsnc12 [Example 4]
5. Cc1ccc(CC(NC(=O)c2ccc(I)cc2NS(=O)(=O)c2cccc3nccnc23)C(=O)O)cc1 (stereo in doubt) [Example 79]
6. O=C(NC(C(=O)O)C(O)c1ccc(Cl)c(Cl)c1)c1ccc(Cl)cc1NS(=O)(=O)c1cccc2nsnc12 (mixture of isomers) [Example 19]

A)
79.4
200
39.8
631
63.1
200
